molecular target: IL-17A (agonist in the IL-17RA/IL17RC dimerization assay) (UniProt Q16552 24-155); test: cell-based or functional assay
Sequence (Q16552 24-155 limits assumed): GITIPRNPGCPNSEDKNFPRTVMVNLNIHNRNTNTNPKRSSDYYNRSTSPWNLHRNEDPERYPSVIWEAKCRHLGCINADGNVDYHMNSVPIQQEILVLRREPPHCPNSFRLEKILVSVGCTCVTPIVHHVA
measuredEndpoint: IC50 in IL-17RA/IL7RC dimerization assay

A selection of reference data follows.
Ac-IHVTIPLEVFEWLQH-NH2 [peptide of SEQ ID NO: 249] :: < 10000 nM
Ac-VHFTIPADFWEWFRR-NH2 [peptide of SEQ ID NO: 142] :: < 500 nM
Ac-VHFTIPADLYNFVRR-NH2 [peptide of SEQ ID NO: 152] :: < 500 nM
Ac-VMVTIPADLYEWIEEVPGAGVPGAG-NH2 [peptide of SEQ ID NO: 37] :: < 200 nM
Ac-VHVTIPADLWEWFRR-NH2 [peptide of SEQ ID NO: 121] :: < 500 nM
Ac-VHVTVPQEIYEWVRR-NH2 [peptide of SEQ ID NO: 236] :: < 10000 nM

Reported IC50 in IL-17RA/IL7RC dimerization assay, binder Ac-VHVTIPADLWDWINK-NH2 (HAP with Ile 1 replaced by Val) [peptide of SEQ ID NO: 2] : ____
< 200 nM

Reported IC50 in IL-17RA/IL7RC dimerization assay, binder Ac-IHVTIPADLWDWYNK-NH2 [peptide of SEQ ID NO: 219] : ____
< 10000 nM

Reported IC50 in IL-17RA/IL7RC dimerization assay, binder Ac-VMVTIPADLYEWIEETWWETWW-NH2 [peptide of SEQ ID NO: 23] : ____
< 1000 nM

Reported IC50 in IL-17RA/IL7RC dimerization assay, binder Ac-IHVTIPADLWDWIND-NH2 [peptide of SEQ ID NO: 223] : ____
< 10000 nM

Reported IC50 in IL-17RA/IL7RC dimerization assay, binder Ac-LRISVPLEIFEWLQH-NH2 [peptide of SEQ ID NO: 252] : ____
< 10000 nM
